B1: HDV Ribozyme (parent)
chain: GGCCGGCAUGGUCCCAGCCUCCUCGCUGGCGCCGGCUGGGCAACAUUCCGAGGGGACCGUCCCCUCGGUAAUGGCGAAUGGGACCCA

- Variants of: B1
- ASSAY OVERVIEW: self-cleavage, relative activity (ratio to wild type); higher = more cleavage; co-transcriptional
Field: self-cleavage. Provide a value for each of the variants that follow.

INPUT: Given the entry C36A G74C , report its measured self-cleavage.
OUTPUT: 0.0997

INPUT: Repeat with G80A G82C
OUTPUT: 0.0978

INPUT: Repeat with G39C C85U
OUTPUT: 0.405

INPUT: Repeat with G34A G68C
OUTPUT: 0.0978

Cited source: the RNAGym collection of RNA variant scans (doi:10.7554/elife.80360)
